- system: rat somatostatin receptor subtype 2 (SSTR2) (Rattus norvegicus)
- Construct: expressed in transfected cells; host or cells: Saccharomyces cerevisiae LY364 bearing pJH2 (SSTR2) and pLP82 (G protein)
- experimentNotes: Yeast assay, somatostatin agonist activity (zone of growth of modified yeast cells)
- Format: cell-based
- Design: key: 1 is minimum agonist activity; 5 is maximum agonist activity; --: When no activity is observed, the result is indicated by a dash
- conditionLabel: rating on a scale of 1-5 from zone of growth; S. cerevisiae LY364 expressing rat SSTR2
Positions of bridges follow the written chain, without caps; N, C: chain ends. Non-standard residues stand in square brackets, D forms with d. Residues, ends and D or L forms follow the SMILES beside them. 2Nal = N[C@@H](Cc1ccc2ccccc2c1)C(=O)O
readoutKind: Yeast Assay Agonist

Query: Let me know recorded Yeast Assay Agonist for CC(=O)N[C@@H](Cc1ccc2ccccc2c1)C(=O)N[C@@H]1CSSC[C@@H](C(=O)N[C@@H](Cc2ccc(O)cc2)C(N)=O)NC(=O)[C@H]([C@@H](C)O)NC(=O)[C@H](CCCCN)NC(=O)[C@@H](Cc2c[nH]c3ccccc23)NC(=O)[C@H](Cc2ccc(O)cc2)NC1=O [Ac-Nal(2) Tyr Lys Thr Tyr] (Ac-[2Nal][dC]Y[dW]KTCY-NH2; disulfide 2-7 (inferred); N-terminus and C-terminus assumed) , thanks.
Response: --

Query: Output Yeast Assay Agonist of "C[C@@H](O)[C@@H]1NC(=O)[C@H](CCCCN)NC(=O)[C@@H](Cc2c[nH]c3ccccc23)NC(=O)[C@H](Cc2ccc(O)cc2)NC(=O)[C@H](NC(=O)[C@@H](N)Cc2ccc([N+](=O)[O-])cc2)CSSC[C@@H](C(=O)N[C@@H](Cc2ccc(O)cc2)C(N)=O)NC1=O"
Response: --

====

- system: rat somatostatin receptor subtype 2 (SSTR2) (Rattus norvegicus, UniProt P30680)
- Construct: expressed in transfected cells; host or cells: Saccharomyces cerevisiae LY364 bearing pJH2 (SSTR2) and pLP82 (G protein)
- Sequence (P30680 whole entry): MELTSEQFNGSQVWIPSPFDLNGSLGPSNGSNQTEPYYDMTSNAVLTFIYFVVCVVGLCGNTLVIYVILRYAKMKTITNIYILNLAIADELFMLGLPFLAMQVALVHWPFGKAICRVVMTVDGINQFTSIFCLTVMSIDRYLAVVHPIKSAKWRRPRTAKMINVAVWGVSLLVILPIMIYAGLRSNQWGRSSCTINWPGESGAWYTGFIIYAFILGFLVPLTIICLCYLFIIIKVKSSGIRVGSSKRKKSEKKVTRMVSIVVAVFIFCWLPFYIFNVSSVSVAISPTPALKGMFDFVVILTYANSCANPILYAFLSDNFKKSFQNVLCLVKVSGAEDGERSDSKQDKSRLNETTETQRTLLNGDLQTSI
- experimentNotes: Yeast assay, somatostatin agonist activity (zone of growth of modified yeast cells)
- Type: cell-based
- Parameters: key: 1 is minimum agonist activity; 5 is maximum agonist activity; --: When no activity is observed, the result is indicated by a dash
- conditionLabel: rating on a scale of 1-5 from zone of growth; S. cerevisiae LY364 expressing rat SSTR2
Positions of bridges follow the written chain, without caps; N, C: chain ends. Non-standard residues stand in square brackets, D forms with d. Residues, ends and D or L forms follow the SMILES beside them. Phe(4-NO2) = N[C@@H](Cc1ccc([N+](=O)[O-])cc1)C(=O)O; Abu = CC[C@H](N)C(=O)O
readoutKind: Yeast Assay Agonist

Query: Find the measured Yeast Assay Agonist of CC[C@@H]1NC(=O)[C@H](CCCCN)NC(=O)[C@@H](Cc2c[nH]c3ccccc23)NC(=O)[C@H](Cc2ccc(O)cc2)NC(=O)[C@H](NC(=O)[C@@H](N)Cc2ccc([N+](=O)[O-])cc2)CSSC[C@@H](C(=O)N[C@@H](Cc2ccc(O)cc2)C(N)=O)NC1=O [4-NO2 Phe Tyr Lys Abu Tyr] (H-[Phe(4-NO2)][dC]Y[dW]K[Abu]CY-NH2; disulfide 2-7) and report it.
Response: --

Query: Return Yeast Assay Agonist for the following compound: CC(=O)N[C@@H](Cc1ccc([N+](=O)[O-])cc1)C(=O)N[C@@H]1CSSC[C@@H](C(=O)N[C@H](Cc2ccc(O)cc2)C(N)=O)NC(=O)[C@H]([C@@H](C)O)NC(=O)[C@H](CCCCN)NC(=O)[C@@H](Cc2c[nH]c3ccccc23)NC(=O)[C@H](Cc2ccc(O)cc2)NC1=O [Ac-4-NO2 Phe Tyr Lys Thr D-Tyr]
Response: --

Query: Dear colleague, please send me the reported Yeast Assay Agonist for C[C@@H](O)[C@@H]1NC(=O)[C@H](CCCNC(=N)N)NC(=O)[C@@H](Cc2c[nH]c3ccccc23)NC(=O)[C@H](Cc2ccc(O)cc2)NC(=O)[C@H](NC(=O)[C@@H](N)Cc2ccc([N+](=O)[O-])cc2)CSSC[C@@H](C(=O)N[C@@H](Cc2ccc(O)cc2)C(N)=O)NC1=O [4-NO2 Phe Tyr Arg Thr Tyr] (H-[Phe(4-NO2)][dC]Y[dW]RTCY-NH2; disulfide 2-7 (inferred); N-terminus and C-terminus assumed) when you can.
Response: --
